Test system: Human alphaherpesvirus 1
experiment.description: Antiviral activity against HSV1
Format: functional, organism-based
The following compounds are shown together with reported pEC50 values.
Reminder that pEC50 means the negative base-10 logarithm of the concentration expressed in mol/L.

Value lookup for pEC50; key = CC(=O)O[C@H]1[C@@H](O)[C@H](O)[C@H](Oc2c(C)c3c4c(c2O)[C@@H](C)CC[C@@H]4[C@@H](C)C[C@H]3C=C(C)C)O[C@H]1C [PSEUDOPTEROSIN P] 5.54

Moving on to another compound below.
Look up pEC50: Nc1nc2c(ncn2COCCO)c(=O)[nH]1 [ACYCLOVIR] 6.02

* * *

Tested on: MCF7
experiment.description: Cytotoxicity against human MCF7 cells relative to control
Assay type: functional
Parameters: concentration or dose not given beside the values
parameter: Activity (%)
I only need the number, in %, no unit after it.

Completed entries (count: 4):
For MCF7, provide Activity of `CC(=O)O[C@H]1[C@@H](O)[C@H](O)[C@H](Oc2c(C)c3c4c(c2O)[C@@H](C)CC[C@@H]4[C@@H](C)C[C@H]3C=C(C)C)O[C@H]1C` please. 0

Recall the recorded Activity for `CC(=O)O[C@@H]1CO[C@H](Oc2c(C)c3c4c(c2O)[C@@H](C)CC[C@@H]4[C@@H](C)C[C@H]3C=C(C)C)[C@@H](O)[C@@H]1O` with MCF7 and state it. 0

Field: Activity (MCF7). Entry: `CC(=O)O[C@H]1[C@H](O)[C@@H](Oc2c(C)c3c4c(c2O)[C@@H](C)CC[C@@H]4[C@@H](C)C[C@H]3C=C(C)C)OC[C@H]1O` 0

Give recorded Activity with MCF7 for the following compound: `CC(=O)O[C@H]1[C@H](O)[C@H](Oc2c(C)c3c4c(c2O)[C@@H](C)CC[C@@H]4[C@@H](C)C[C@H]3C=C(C)C)O[C@@H](C)[C@H]1O` 103

Next:
Lab request: please report Activity under test system MCF7 for `CC(=O)O[C@H]1[C@H](O)[C@@H](Oc2c(C)c3c4c(c2O)[C@@H](C)CC[C@@H]4[C@@H](C)C[C@H]3C=C(C)C)OC[C@H]1OC(C)=O` 0

* * *

Test system: Human alphaherpesvirus 2
experiment.description: Antiviral activity against HSV2
Assay type: functional, organism-based
Listed below: EC50 values for each entry.
Field format: number, assumed nM, no unit text.

State the recorded EC50 for this entry: CC(=O)O[C@H]1[C@@H](O)[C@H](O)[C@H](Oc2c(C)c3c4c(c2O)[C@@H](C)CC[C@@H]4[C@@H](C)C[C@H]3C=C(C)C)O[C@H]1C [PSEUDOPTEROSIN P] 2900

The record that follows has no EC50 shown yet.
So what does the record say about EC50 for Nc1nc2c(ncn2COCCO)c(=O)[nH]1 [ACYCLOVIR] ? 950

* * *

Tested on: Plasmodium falciparum
experiment.description: Antimalarial activity against chloroquine-resistant Plasmodium falciparum W2 after 48 hrs by fluorimetry
Type: functional, organism-based
experimental.setup: W2, 48 h
parameter: IC50 (µg/mL)
All answers are understood in µg/mL, so give the number only.

Give IC50 (Plasmodium falciparum) of the following compound: CC(=O)O[C@H]1[C@H](O)[C@@H](Oc2c(C)c3c4c(c2O)[C@@H](C)CC[C@@H]4[C@@H](C)C[C@H]3C=C(C)C)OC[C@H]1O [PSEUDOPTEROSIN V] 1

Notebook entry, Plasmodium falciparum assay: IC50 of CC(=O)O[C@H]1[C@H](O)[C@H](Oc2c(C)c3c4c(c2O)[C@@H](C)CC[C@@H]4[C@@H](C)C[C@H]3C=C(C)C)O[C@@H](C)[C@H]1O [PSEUDOPTEROSIN Q] = ? 15

Request: IC50, test system Plasmodium falciparum, entry CC(=O)O[C@@H]1CO[C@H](Oc2c(C)c3c4c(c2O)[C@@H](C)CC[C@@H]4[C@@H](C)C[C@H]3C=C(C)C)[C@@H](O)[C@@H]1O [PSEUDOPTEROSIN U] 19

Others:
Provide value of IC50 for this record tested with Plasmodium falciparum: CC(=O)O[C@H]1[C@@H](O)[C@H](O)[C@H](Oc2c(C)c3c4c(c2O)[C@@H](C)CC[C@@H]4[C@@H](C)C[C@H]3C=C(C)C)O[C@H]1C [PSEUDOPTEROSIN P] 12
